Values from the supplement of paper PMC9233669

# Test system: biotinyl-Val-oxazolone
# assayProtocol: self-aminoacylation, catalytic enhancement (BVO) (fold over background); higher = more active; k-Seq, kA / k0A0; sequences stand for … in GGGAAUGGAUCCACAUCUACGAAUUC…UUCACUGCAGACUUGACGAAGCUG
Variants at the floor of the assay were thinned out.
Kindly return MET if reported self-aminoacylation is no lower than 3; return NOT MET if it is lower.

Completed entries (count: 3):
inputsequence="AUUACCCUGGUCAUAGAGCGA [Fam2.1 aminoacylation ribozyme variant]" assaysystem=biotinyl-Val-oxazolone classname="NOT MET"
inputsequence="CCGGACUUCAAGCAAUCGGUC [Fam1B.1 aminoacylation ribozyme variant]" assaysystem=biotinyl-Val-oxazolone classname="NOT MET"
inputsequence="ACUAGCCUGGUCAUCGAGUGA [Fam2.1 aminoacylation ribozyme variant]" assaysystem=biotinyl-Val-oxazolone classname=MET

Ask | Could you tell me if the measured self-aminoacylation of AUUUGCCUGGUCAUCGAGUGA [Fam2.1 aminoacylation ribozyme variant] reaches 3 or more?
Reply | MET

Ask | Could you tell me if the measured self-aminoacylation of UUUACCCUGGUCAUCGAAUGA [Fam2.1 aminoacylation ribozyme variant] reaches 3 or more?
Reply | NOT MET

Ask | Could you tell me if the measured self-aminoacylation of CUACUUCAAUCAAUCGGUCUA [Fam1A.1 aminoacylation ribozyme variant] reaches 3 or more?
Reply | NOT MET

Ask | Could you tell me if the measured self-aminoacylation of AAGUUUCCUAAUUGUCGCAAG [Fam3.1 aminoacylation ribozyme variant] reaches 3 or more?
Reply | NOT MET

Ask | Could you tell me if the measured self-aminoacylation of CCACAUUUCAAGCAAUCGGUU [Fam1B.1 aminoacylation ribozyme variant] reaches 3 or more?
Reply | NOT MET

* * *

# Tested on: biotinyl-Ile-oxazolone
# assayProtocol: self-aminoacylation, catalytic enhancement (BIO) (fold over background); higher = more active; k-Seq, kA / k0A0; sequences stand for … in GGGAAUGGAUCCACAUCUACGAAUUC…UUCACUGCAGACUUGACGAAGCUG
Fewer inactive variants are shown than the library holds.
Kindly return true (1) if reported self-aminoacylation is no lower than 2; return false (0) if it is lower.

Completed entries (count: 5):
inputsequence="AUUCACUUAGGUCCUCGGGUG [Fam2.2 aminoacylation ribozyme variant]" assaysystem=biotinyl-Ile-oxazolone classname="true (1)"
inputsequence="AUUGCCCUGGCCAUCGAGUGA [Fam2.1 aminoacylation ribozyme variant]" assaysystem=biotinyl-Ile-oxazolone classname="true (1)"
inputsequence="ACGUUUGCUAAGAGUCGCAAG [Fam3.1 aminoacylation ribozyme variant]" assaysystem=biotinyl-Ile-oxazolone classname="false (0)"
inputsequence="CUACUUCAAACAAUCGCUCAG [Fam1A.1 aminoacylation ribozyme variant]" assaysystem=biotinyl-Ile-oxazolone classname="false (0)"
inputsequence="AUUACCCUGGCCAUCGAAUGA [Fam2.1 aminoacylation ribozyme variant]" assaysystem=biotinyl-Ile-oxazolone classname="false (0)"

Now look at this one.
Ask | Could you tell me if the measured self-aminoacylation of AAGUUUGCUAAUUGUCUCAAG [Fam3.1 aminoacylation ribozyme variant] reaches 2 or more?
Reply | false (0)

* * *

# Tested on: biotinyl-Phe-oxazolone
# assayProtocol: self-aminoacylation, catalytic enhancement (BFO) (fold over background); higher = more active; k-Seq, kA / k0A0; sequences stand for … in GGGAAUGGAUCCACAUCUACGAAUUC…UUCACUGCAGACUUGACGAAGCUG
Fewer inactive variants are shown than the library holds.
Reported self-aminoacylation maps to class as: low group (below 1), middle group (1 to below 4), high group (4 or more)

Completed entries (count: 4):
inputsequence="AUUCACCUUCGUCAUCGGGUG [Fam2.2 aminoacylation ribozyme variant]" assaysystem=biotinyl-Phe-oxazolone classname="high group"
inputsequence="AAUUUUGCUAACAGUCGCAAG [Fam3.1 aminoacylation ribozyme variant]" assaysystem=biotinyl-Phe-oxazolone classname="middle group"
inputsequence="AGUCACCUCGGUCAUCGGGUG [Fam2.2 aminoacylation ribozyme variant]" assaysystem=biotinyl-Phe-oxazolone classname="high group"
inputsequence="AUUACCCUGCUCUUCGAGUGA [Fam2.1 aminoacylation ribozyme variant]" assaysystem=biotinyl-Phe-oxazolone classname="middle group"

Ask | Into which category would you place ACUAACCUAGGUCAUCGGGUG [Fam2.2 aminoacylation ribozyme variant] ?
Reply | high group

Ask | Into which category would you place CUACUUCAAACAAUCGGCGUG [Fam1A.1 aminoacylation ribozyme variant] ?
Reply | high group

Ask | Into which category would you place AAGUUUGCUAAUGGCCGCAAG [Fam3.1 aminoacylation ribozyme variant] ?
Reply | high group

Ask | Into which category would you place GAGAUUGCUAAUAGUCGCAAG [Fam3.1 aminoacylation ribozyme variant] ?
Reply | middle group

Ask | Into which category would you place AUUCACCUAGGUCAUCAGGUG [Fam2.2 aminoacylation ribozyme variant] ?
Reply | middle group

Ask | Into which category would you place CUACUUCAAACAAUCCAUCUG [Fam1A.1 aminoacylation ribozyme variant] ?
Reply | middle group

Ask | Into which category would you place CCACCCUUCAAGCACUCGGUC [Fam1B.1 aminoacylation ribozyme variant] ?
Reply | low group

Ask | Into which category would you place CUACUUCAAACCAUCGGUCUC [Fam1A.1 aminoacylation ribozyme variant] ?
Reply | low group

Ask | Into which category would you place CCACACCUCAAGCAAUCGGUC [Fam1B.1 aminoacylation ribozyme variant] ?
Reply | middle group

Ask | Into which category would you place AUUACGCUGGUCAUCGAGUGA [Fam2.1 aminoacylation ribozyme variant] ?
Reply | high group

Ask | Into which category would you place AUUCACCUAGGUCAACGGGCG [Fam2.2 aminoacylation ribozyme variant] ?
Reply | high group

Ask | Into which category would you place CCACACUUCGAGCAAUCGGGC [Fam1B.1 aminoacylation ribozyme variant] ?
Reply | high group

Ask | Into which category would you place AUUACCCGGGUCAUCGAAUGA [Fam2.1 aminoacylation ribozyme variant] ?
Reply | low group

Ask | Into which category would you place CUACUACAAACAAUCGGACUG [Fam1A.1 aminoacylation ribozyme variant] ?
Reply | low group

Ask | Into which category would you place AUUCACCUAGGUCAACGGUUG [Fam2.2 aminoacylation ribozyme variant] ?
Reply | middle group

Ask | Into which category would you place CUUCUGCAAACAAUCGGUCUG [Fam1A.1 aminoacylation ribozyme variant] ?
Reply | middle group

Ask | Into which category would you place CCACACUUCAAGCAAUGGGUU [Fam1B.1 aminoacylation ribozyme variant] ?
Reply | low group

* * *

# System: biotinyl-Leu-oxazolone
# assayProtocol: self-aminoacylation, catalytic enhancement (BLO) (fold over background); higher = more active; k-Seq, kA / k0A0; sequences stand for … in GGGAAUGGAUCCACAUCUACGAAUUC…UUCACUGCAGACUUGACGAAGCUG
This sample holds only a part of the variants without activity.
Kindly return Y if reported self-aminoacylation is no lower than 3; return N if it is lower.

Ask | Could you tell me if the measured self-aminoacylation of CCAGACUUCAAGCAUUCGGUC [Fam1B.1 aminoacylation ribozyme variant] reaches 3 or more?
Reply | N

Ask | Could you tell me if the measured self-aminoacylation of CUACUUCAUACAAUUGGUCUG [Fam1A.1 aminoacylation ribozyme variant] reaches 3 or more?
Reply | N

Ask | Could you tell me if the measured self-aminoacylation of CCACACUAGAAGCAAUCGGUC [Fam1B.1 aminoacylation ribozyme variant] reaches 3 or more?
Reply | N

Ask | Could you tell me if the measured self-aminoacylation of CUACUUCAAAGAAUCGGUCUU [Fam1A.1 aminoacylation ribozyme variant] reaches 3 or more?
Reply | N

* * *

# Test system: biotinyl-Ile-oxazolone
# assayProtocol: self-aminoacylation, catalytic enhancement (BIO) (fold over background); higher = more active; k-Seq, kA / k0A0; sequences stand for … in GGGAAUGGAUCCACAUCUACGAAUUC…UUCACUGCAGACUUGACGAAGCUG
Fewer inactive variants are shown than the library holds.
Kindly return met if reported self-aminoacylation is no lower than 1; return not met if it is lower.

Completed entries (count: 6):
inputsequence="CCACACGUCAAGCACUCGGUC [Fam1B.1 aminoacylation ribozyme variant]" classname=met
inputsequence="CCACACUUCAACCAAUCUGUC [Fam1B.1 aminoacylation ribozyme variant]" classname="not met"
inputsequence="AAGUGUGCUAAUAGUCUCAAG [Fam3.1 aminoacylation ribozyme variant]" classname=met
inputsequence="AUUAGCCUGGUGAUCGAGUGA [Fam2.1 aminoacylation ribozyme variant]" classname=met
inputsequence="AAGUUUGCUAAUAGCAGCAAG [Fam3.1 aminoacylation ribozyme variant]" classname="not met"
inputsequence="CCACACUUAAGGCAAUCGGUC [Fam1B.1 aminoacylation ribozyme variant]" classname=met

Ask | Could you tell me if the measured self-aminoacylation of ACUAGCCUGGUCAUCGAGUGA [Fam2.1 aminoacylation ribozyme variant] reaches 1 or more?
Reply | met
